Reference source for all entries: PubChem BioAssay

Test: calorie-restriction mimetic ROS inhibitors, yeast – validation compound set, pilot screen (AID 2706);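 note: yeast exposed to compound for one week at 30 degrees C before staining; 100% = mean of all compound wells on the same plate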
Conditions: S. cerevisiae aging, superoxide DHE fluorescence; at 10 µM; stronger effect = lower value
Readout name: superoxide response (% of plate) (%)
Answer format: numeric, % implied, no suffix.

Guide cases for superoxide response (% of plate), answers given:
COc1cc(OC)c2c(C)c(Cl)c(=O)oc2c1 : 90.2
NNC(=O)c1ccncc1 : 90.8

Please look at the following compound next.
Prompt line: Note superoxide response (% of plate) for the compound shown: "Cc1[nH]c2ccccc2c1/C=C/c1nc2ccccc2c(=O)n1CCO"
Response line: 89.8

###

Listing of recorded GTP binding, percent of control by entry.
Target: GTPase HRas (Homo sapiens) (UniProt P01112)
Sequence (P01112 whole entry, looked up): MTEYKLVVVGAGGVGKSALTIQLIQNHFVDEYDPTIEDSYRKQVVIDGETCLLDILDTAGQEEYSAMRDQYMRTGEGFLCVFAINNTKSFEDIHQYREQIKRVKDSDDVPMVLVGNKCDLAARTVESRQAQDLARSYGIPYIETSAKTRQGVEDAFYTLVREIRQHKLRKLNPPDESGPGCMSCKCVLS
Assay: Ras wt fluorescent GTP loading blockade – biochemical, wildtype, multiplex bead flow cytometry, dose response (AID 1335)
Settings: bead-based flow cytometry, Bodipy-GTP binding to GST-Ras; at 100 µM (top of the series) unless noted

CCOc1ccc(Cn2c3ccc(OC)cc3c3nc4ccccc4nc32)cc1 : 127% [at 33.3 µM]
CCCCCCn1nc(C(=O)OCC(=O)c2c(N)n(C)c(=O)n(C)c2=O)c2ccccc2c1=O : 80.1%

Prompt line: Consider the molecule "COc1ccc(OC)c(CCNCc2ccc(C(=O)O)s2)c1" . State its measured GTP binding, percent of control.
Response line: 82.2%

###

Overview of recorded double positive events for various compounds
Experiment: reduced mouse 2C T cell binding to pMHC/ICAM-1 vesicles – MLPCN validation set, flow cytometry, LFA-1/ICAM-1 modulator project, pilot screen (AID 2523)
Conditions: 2C mouse CD8+ T cells, at 7 µM, stronger effect = lower value; measured here: CD8+/vesicle+ event percentage

Prompt line: Find the measured double positive events of "CCOc1ccc(OCCSc2nc3ccccc3[nH]2)cc1" and report it.
Response line: 60.3%

Prompt line: Annotate the compound NS(=O)(=O)c1cc2c(cc1Cl)NC(C1C[C@H]3C=C[C@@H]1C3)NS2(=O)=O (some centres not stated) with its measured double positive events.
Response line: 61.8%

Prompt line: Please give the documented double positive events of "C=C(C)[C@@H]1CC=C(CN2CCC(N3CCC(C(=O)N4CCCC4)CC3)CC2)CC1"
Response line: 60.1%

Prompt line: Please indicate double positive events recorded for "Cc1ccc(N2CCN(C(=S)c3ccc(-c4cccc([N+](=O)[O-])c4)o3)CC2)cc1"
Response line: 61.7%

Prompt line: Supply reported double positive events belonging to this compound: Cc1ccc(C2CC(=O)C(C=NCCN3CCN(CC(=O)Nc4cc(C)cc(C)c4)CC3)=C(O)C2)cc1 (configuration not stated)
Response line: 60.5%

Prompt line: Read the entry "CC(C)=CCC/C(C)=C/CC/C(C)=N/O" and write its reported double positive events.
Response line: 59.7%

Prompt line: For the compound "CCn1c(SCC(=O)c2ccccc2)nc2ccccc2c1=O" , report double positive events.
Response line: 60.3%

###

Assay: TOR pathway LAP4-GFP level changes – S. cerevisiae, multiplex flow cytometry, primary screen (AID 1873)
Conditions: S. cerevisiae LAP4-GFP expression, 3 h, at 10 µM, stronger effect = higher value
Records with an inconclusive call do not appear.
Readout name: GFP response vs DMSO (%)
Quick reminder: number only, in %, skip the unit.

Solved cases (2 shown):
O=C(CCCN1C(=O)/C(=C\c2cccs2)SC1=S)Nc1ccccn1 : 99.1
O=Cc1ccc(OC(=O)c2cccnc2)cc1 : 78.6

Prompt line: Tell us which GFP response vs DMSO value is on record for "CCCCC[C@H](O)/C=C/C1=C(CCCCCCC(=O)O)C(=O)CC1"
Response line: 95.9

Prompt line: Input "COCCCN1C(=O)/C(=C\c2cccs2)C(C(=O)OC)=C1C" , output reported GFP response vs DMSO.
Response line: 120

Prompt line: Note GFP response vs DMSO for the molecule shown: CC1(C)CC(c2csc(N)n2)CCO1 (stereo not drawn)
Response line: 86.8

###

Each entry below carries its reported inhibition.
Molecular target: AP-2 complex subunit beta (Homo sapiens)
Assay: beta-arrestin/AP2 interaction blockers – biochemical, validation set, GST-AP2 beads, flow cytometry, pilot screen (AID 504541);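 note: AP2 carries R879A mutation and is captured from E. coli lysate; bead-bound FITC arrestin peptide fluorescence measuring arrestin peptide binding to AP2; 0% = DMSO wells and 100% = excess unlabeled arrestin peptide control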
Conditions: FITC arrestin peptide, at 10 µM, stronger effect = higher value, AP2 beta2 appendage fragment, R879A mutant
The reply should be a number in %, with the unit left off.

Known inhibition results, listed for orientation:
CCC(C)NCCOc1ccc(C(C)(C)c2ccccc2)cc1 (stereo not given) : -12.2
COc1cc2c(cc1OC)CN(Cc1ccc(C)s1)CC2 : 14.8
COc1ccccc1/C=C/C(=O)c1c2c(c(C)[nH]c1=O)CCCC2 : 1.34
CNCCC(Oc1ccc(C(F)(F)F)cc1)c1ccccc1 (stereo not given) : 13.5
COC(=O)c1cc(Br)c(=O)n(CCc2ccc(O)cc2)c1 : 4.99
Fc1ccc(NC(=S)Nc2ccccc2Cl)cc1 : 10.1
O=C(O)CCCc1ccccc1 : -6
O=C(CCC(=O)NCCO)NCCO : -1.09
CCn1c(/C=C/c2ccccc2)nc2ccccc2c1=O : -8.94

// next item, inhibition requested
Prompt line: Report value: inhibition, system: AP-2 complex subunit beta (Homo sapiens), molecule: "Cc1ccccc1NC(=O)NCCc1c[nH]c2ccccc12"
Response line: 7.09

###

# maps each entry to its superoxide response (% of plate)
Assay: calorie-restriction mimetic ROS inhibitors, yeast – validation compound set, pilot screen (AID 2706);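 note: yeast exposed to compound for one week at 30 degrees C before staining; 100% = mean of all compound wells on the same plate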
Details: S. cerevisiae aging, superoxide DHE fluorescence; at 10 µM; stronger effect = lower value
Express it in %; write the number only.

Example cases with answers are listed next.
Cc1ccc(N2C(=O)c3ccccc3C2=O)cc1C : 99.1
CCC(C)NCCOCCOc1ccc(Cl)cc1Br (centres undefined) : 98
Cc1nc2c(c3c1[nH]c1ccccc13)C(=O)CC(C)(C)C2 : 99.2
COc1ccc(O)c(C2=Nc3ccccc3N=C(c3ccccc3)C2)c1 : 96.7
COC(=O)CN1C(=S)N(c2ccc(F)cc2)C(=O)C1CC(=O)Nc1ccccc1 (centres undefined) : 103
CC(C(=O)O)c1ccc(-c2ccccc2)c(F)c1 (centres undefined) : 106
COc1cccc(-n2c(C)c3c(OC)cccc(=O)c3c2C)c1 : 109
COc1ccc(-c2c3c(=O)n(C)c(=O)n(C)c3cn2C2CCCCC2)cc1 : 106

Prompt line: Output superoxide response (% of plate) of O=CNC1CCCc2c1[nH]c1ccc(Cl)cc21 (centres undefined)
Response line: 113

###

Target: Integrin beta-1 (Homo sapiens) + Integrin alpha-4 (Homo sapiens) (UniProt P13612+P05556)
Sequence (P05556 whole entry, looked up): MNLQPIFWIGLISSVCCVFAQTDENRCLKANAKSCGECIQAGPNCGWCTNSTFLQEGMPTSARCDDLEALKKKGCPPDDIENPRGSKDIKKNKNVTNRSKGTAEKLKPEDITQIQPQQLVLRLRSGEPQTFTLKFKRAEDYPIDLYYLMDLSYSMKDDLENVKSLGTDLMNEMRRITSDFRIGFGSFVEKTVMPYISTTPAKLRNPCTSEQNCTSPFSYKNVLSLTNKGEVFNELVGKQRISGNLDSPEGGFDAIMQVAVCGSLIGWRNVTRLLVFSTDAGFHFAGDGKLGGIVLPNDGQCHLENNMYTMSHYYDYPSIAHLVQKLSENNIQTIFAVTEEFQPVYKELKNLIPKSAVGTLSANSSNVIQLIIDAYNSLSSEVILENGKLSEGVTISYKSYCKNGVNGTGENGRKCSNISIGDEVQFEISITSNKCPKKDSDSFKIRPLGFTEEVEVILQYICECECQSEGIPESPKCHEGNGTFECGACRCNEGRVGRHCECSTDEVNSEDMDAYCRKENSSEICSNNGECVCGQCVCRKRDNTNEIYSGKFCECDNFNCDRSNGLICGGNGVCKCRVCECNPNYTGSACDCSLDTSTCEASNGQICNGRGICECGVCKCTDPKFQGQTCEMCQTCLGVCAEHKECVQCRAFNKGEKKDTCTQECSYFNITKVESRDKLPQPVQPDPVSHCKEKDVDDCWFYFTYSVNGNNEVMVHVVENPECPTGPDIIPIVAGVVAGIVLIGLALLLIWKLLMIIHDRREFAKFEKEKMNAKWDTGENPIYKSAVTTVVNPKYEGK
Sequence (P13612 whole entry, looked up): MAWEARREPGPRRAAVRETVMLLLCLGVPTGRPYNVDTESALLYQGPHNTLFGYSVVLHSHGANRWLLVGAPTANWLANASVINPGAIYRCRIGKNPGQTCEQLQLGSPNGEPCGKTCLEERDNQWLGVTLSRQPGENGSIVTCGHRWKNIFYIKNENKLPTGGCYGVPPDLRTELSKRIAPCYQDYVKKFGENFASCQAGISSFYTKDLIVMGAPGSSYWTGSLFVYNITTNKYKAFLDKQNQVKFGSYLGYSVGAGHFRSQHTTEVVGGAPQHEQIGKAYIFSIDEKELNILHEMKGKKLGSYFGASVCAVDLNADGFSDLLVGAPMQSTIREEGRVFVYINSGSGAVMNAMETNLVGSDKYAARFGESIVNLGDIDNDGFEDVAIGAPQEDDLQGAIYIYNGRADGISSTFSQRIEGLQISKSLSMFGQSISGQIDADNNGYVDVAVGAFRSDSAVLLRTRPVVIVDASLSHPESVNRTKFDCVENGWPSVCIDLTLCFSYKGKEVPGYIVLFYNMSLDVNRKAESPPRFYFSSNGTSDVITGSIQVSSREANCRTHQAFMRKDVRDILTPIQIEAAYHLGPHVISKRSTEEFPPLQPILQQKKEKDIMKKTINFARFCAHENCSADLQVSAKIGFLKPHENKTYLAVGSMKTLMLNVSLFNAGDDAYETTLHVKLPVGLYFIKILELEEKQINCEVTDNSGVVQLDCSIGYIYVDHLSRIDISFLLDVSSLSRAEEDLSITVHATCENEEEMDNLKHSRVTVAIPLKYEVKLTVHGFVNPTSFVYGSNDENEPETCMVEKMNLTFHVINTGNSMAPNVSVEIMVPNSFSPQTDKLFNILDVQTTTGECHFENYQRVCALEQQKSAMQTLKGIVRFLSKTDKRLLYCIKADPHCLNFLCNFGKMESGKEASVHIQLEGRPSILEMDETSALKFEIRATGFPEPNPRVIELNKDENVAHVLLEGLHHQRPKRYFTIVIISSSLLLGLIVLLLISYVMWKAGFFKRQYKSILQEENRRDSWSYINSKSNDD
Assay: alpha4beta1 integrin LIBS antibody binding reduction – U937 cells, HUTS-21 mAb, flow cytometry, validation set, VLA-4 allosteric modulator project, pilot screen (AID 2674);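 note: antibody binding induced by the VLA-4 ligand LDV present at three times its Kd; 0% = LDV ligand with antibody and no compound and 100% = antibody without LDV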
Settings: HUTS-21 LIBS mAb binding, at 6.7 µM, stronger effect = higher value, binding induced by LDV ligand
The compounds listed here are annotated with their inhibition.
Hi! Could you send only the number? It should be in %, unit omitted.

Use the examples below as a reference point.
O=C1CC2(CCCC2)CC(=O)N1CCCCN1CCN(c2ncccn2)CC1 : 7.85
O=C(COc1cc(O)c2c(=O)c3ccccc3oc2c1)OCc1ccccc1 : -3.57
O=Cc1ccc(O)c(O)c1 : 8.29

Prompt line: Indicate its recorded inhibition; the compound in question is Cc1ncoc1C(=O)N1CCCC(C(=O)c2ccc(-c3ccccc3)c(F)c2)C1 (configuration not stated)
Response line: -3.24

Prompt line: Specify measured inhibition for "CCOC(=O)N1CCc2[nH]c3ccc(C)cc3c2C1" .
Response line: -3.67

Prompt line: Using known records, supply inhibition for "COc1ccc(N2C(=O)[C@@H]3[C@H](C2=O)[C@H]2c4ccccc4C=CN2[C@@H]3C(C)=O)cc1"
Response line: -27.9

Prompt line: Supply measured inhibition of "CCOC(=O)n1c(=O)oc2ccccc21" in your reply.
Response line: 6.55

###

Experiment: TOR pathway LAP4-GFP level changes – S. cerevisiae, multiplex flow cytometry, primary screen (AID 1873)
Conditions: S. cerevisiae LAP4-GFP expression, 3 h, at 10 µM, stronger effect = higher value
Inconclusive results are not listed.
Everything with GFP response vs DMSO lower than 90% is False; everything else, including exactly 90%, is True.

CN(C)CCN(Cc1ccc(Cl)cc1)c1ccccn1 : True
C[C@]12CC[C@H]3[C@@H](CCC4=CC(=O)CC[C@@]43C)[C@@H]1CC[C@@H]2C(=O)CO : False
CN(C)CC/C=C1\c2ccccc2COc2ccccc21 : True
O=C(Nc1cccc(C(=O)O)c1)/C(=C\c1ccccc1)NC(=O)c1ccccc1 : False
Cc1ccc(C)c(OCCCC(C)(C)C(=O)O)c1 : True

Prompt line: Answer whether GFP response vs DMSO of "CC(=O)[C@H]1CC[C@H]2[C@@H]3C[C@H](C)C4=CC(=O)CC[C@]4(C)[C@H]3[C@@H](O)C[C@]12C" is greater than or equal to 90%.
Response line: False

Prompt line: Would you say "O=c1[nH]cc(F)c(=O)[nH]1" shows GFP response vs DMSO at minimum 90%?
Response line: False
